Hello, the source for this data is ChEMBL document CHEMBL5113453, in case you need it.

# TARGET OR SYSTEM: Mitogen-activated protein kinase 10 (Homo sapiens, UniProt P53779)
# Sequence (P53779 whole entry, the tested form may be a part): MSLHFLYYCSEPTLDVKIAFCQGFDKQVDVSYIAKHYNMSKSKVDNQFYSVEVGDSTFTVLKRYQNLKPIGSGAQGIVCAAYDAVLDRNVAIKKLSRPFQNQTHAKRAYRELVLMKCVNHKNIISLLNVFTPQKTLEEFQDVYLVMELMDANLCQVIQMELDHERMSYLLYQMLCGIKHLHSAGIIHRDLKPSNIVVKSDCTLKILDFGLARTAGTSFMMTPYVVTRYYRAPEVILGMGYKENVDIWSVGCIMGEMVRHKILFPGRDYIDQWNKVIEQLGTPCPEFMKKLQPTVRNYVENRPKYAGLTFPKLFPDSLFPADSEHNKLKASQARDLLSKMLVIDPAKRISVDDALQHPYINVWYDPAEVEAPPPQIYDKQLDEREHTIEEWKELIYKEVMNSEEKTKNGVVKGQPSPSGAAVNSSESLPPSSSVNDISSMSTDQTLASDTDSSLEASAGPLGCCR
# ASSAY METHOD TEXT: Inhibition of JNK3 in human HEK293 cells transfected with JNK3-NanoLuc fusion vector measured after 1 hr by NanoBRET assay
# Type: cell-based
Task for the reader: assign each of the following molecules its reported IC50.
Expressed in µM, but write only the number.

# input Reported IC50 for O=C(NCCCNc1cc(-c2cn(-c3ccccc3)nc2-c2cccc(O)c2)ccn1)Nc1ccc(F)cc1 : what is it?
# output 3.84

# input Name the recorded IC50 for O=C(NCCNc1cc(-c2cn(-c3ccccc3)nc2-c2cccc(O)c2)ccn1)Nc1cccc(C(F)(F)F)c1 .
# output 3.92
